system.name: T1, RTEL1∆762 (human, UniProt Q9NZ71-6 762-1300)
T1 sequence: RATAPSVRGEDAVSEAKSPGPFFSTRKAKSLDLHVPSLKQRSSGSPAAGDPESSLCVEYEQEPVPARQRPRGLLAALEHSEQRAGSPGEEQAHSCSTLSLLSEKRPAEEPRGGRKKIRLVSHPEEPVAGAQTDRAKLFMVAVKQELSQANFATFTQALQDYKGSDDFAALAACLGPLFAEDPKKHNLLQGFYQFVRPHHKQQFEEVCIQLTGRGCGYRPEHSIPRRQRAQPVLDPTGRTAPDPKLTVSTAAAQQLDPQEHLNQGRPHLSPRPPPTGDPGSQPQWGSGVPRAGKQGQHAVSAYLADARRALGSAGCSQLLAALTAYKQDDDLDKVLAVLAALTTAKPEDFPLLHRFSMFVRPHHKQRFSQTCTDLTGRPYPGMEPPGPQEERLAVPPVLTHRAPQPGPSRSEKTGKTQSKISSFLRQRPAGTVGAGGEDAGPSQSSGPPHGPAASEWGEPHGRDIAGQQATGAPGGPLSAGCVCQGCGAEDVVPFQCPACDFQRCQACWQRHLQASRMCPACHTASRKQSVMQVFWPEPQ
protocol.text: fluorescence anisotropy; 20 mM Tris pH 7.5, 50 mM KCl, 0.5 mM TCEP, 0.5 mM MgCl2, 10% glycerol, 0.1% IGEPAL, room temperature 30 min; oligos refolded in 10 mM Tris pH 7.5, 100 mM KCl; EMSA legends give 150 or 300 mM KCl
particulars: protein: recombinant; tags: 6xHis; chain copies: 2; label: 5' fluorescein
pKd: −log10 of the molar value.
metric.name: pKd

{"columns": ["binder", "observed.measurement"],
 "data": [
  ["AAAAAAAAAAAAAAAAAAAAAAAA (ssRNA) [Poly A 24mer]", 6.30]
]}
